System Name: neuraminidase (NA) of influenza B/England/598/2014 (WT-H273) (Influenza B virus, UniProt A0A1S5RAG6)
Type: biochemical
Stated Conditions: approximate value given in discussion for wild-type influenza B viruses; read-out: IC50 for wild-type influenza B viruses
Readout Name: IC50

What value of IC50 has been recorded for this entry: CCC(CC)[C@H](NC(C)=O)[C@@H]1[C@H](O)[C@@H](C(=O)O)C[C@H]1N=C(N)N
~1 nM

###

System Name: neuraminidase (NA) of influenza B/Minnesota/23/2015 (WT-D197) (Influenza B virus, UniProt A0A1S5RAG6)
Sequence (A0A1S5RAG6 entry or part of it, added parts left off): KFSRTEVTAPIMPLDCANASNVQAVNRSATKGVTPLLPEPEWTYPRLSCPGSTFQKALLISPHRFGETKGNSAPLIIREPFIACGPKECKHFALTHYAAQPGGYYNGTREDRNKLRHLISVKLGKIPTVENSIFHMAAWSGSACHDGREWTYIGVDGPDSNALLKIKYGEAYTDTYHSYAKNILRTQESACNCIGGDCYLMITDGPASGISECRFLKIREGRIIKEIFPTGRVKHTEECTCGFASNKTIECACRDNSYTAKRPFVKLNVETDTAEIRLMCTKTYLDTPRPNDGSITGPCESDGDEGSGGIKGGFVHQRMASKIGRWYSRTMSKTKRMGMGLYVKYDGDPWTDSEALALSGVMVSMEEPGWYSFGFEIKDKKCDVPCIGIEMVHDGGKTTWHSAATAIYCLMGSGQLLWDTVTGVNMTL
Type: biochemical
Stated Conditions: three independent experiments, read-out: IC50 (nM), mean ± SD
Readout Name: IC50
Write the figure, then the unit, nothing else.

Any idea what IC50 was measured for CCC(CC)[C@H](NC(C)=O)[C@@H]1[C@H](O)[C@@H](C(=O)O)C[C@H]1N=C(N)N [Peramivir, peramivir] ?
1 nM

###

System Name: neuraminidase (NA) of influenza B/England/598/2014 (WT-H273) (Influenza B virus, UniProt A0A1S5RAG6)
Format: biochemical
Stated Conditions: WT-H273 virus; three independent experiments; read-out: IC50 (nM), mean ± SD
Readout Name: IC50 (nM)
Answers are plain numbers, in nM.

What value of measured IC50 is listed for CCC(CC)[C@H](NC(C)=O)[C@@H]1[C@H](O)[C@@H](C(=O)O)C[C@H]1N=C(N)N [Peramivir, peramivir] ?
1
